# Test system: Pharbitis purpurea
# Experiment Notes: Pre-emergence herbicidal action
# Type: in vivo
# Reported Conditions: application rate 20 g/ha
Reported Pharbitis purpurea (efficacy in %) values for the following compounds.
Express your answer in %, writing the number without its unit.

Cn1c(C(F)(F)F)cc(=O)n(-c2cc(Oc3cccnc3OCC(=O)OCCOCc3ccccc3)c(Cl)cc2F)c1=O : 100
Cn1c(C(F)(F)F)cc(=O)n(-c2cc(Oc3cccnc3OCC(=O)OCc3ccncc3)c(Cl)cc2F)c1=O : 100
Cn1c(C(F)(F)F)cc(=O)n(-c2cc(Oc3cccnc3OCC(=O)OCc3ccc(C(F)(F)F)nc3)c(Cl)cc2F)c1=O : 100
Cn1c(C(F)(F)F)cc(=O)n(-c2cc(Oc3cccnc3OCC(=O)OCC3NC(=O)NC3=O)c(Cl)cc2F)c1=O (stereo not drawn) : 90
Cn1c(C(F)(F)F)cc(=O)n(-c2cc(Oc3cccnc3OCC(=O)OCC3OCCO3)c(Cl)cc2F)c1=O : 100

From here, focus on the item given below.
*Q* Data request, read-out Pharbitis purpurea (efficacy in %), for Cn1c(C(F)(F)F)cc(=O)n(-c2cc(Oc3cccnc3OCC(=O)OCc3ccccn3)c(Cl)cc2F)c1=O
*A* 100
